Measured nuclei count, listed per entry for reference.
Test: inhibitors of E-selectin induction by TNFa, primary screen, imaging, HUVEC, immunofluorescence, MLSMR starter and 10KST1 sets (AID 487);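 further: 100% = median nuclei count of all wells on the same plate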
Settings: HUVEC TNFalpha-induced E-selectin immunofluorescence imaging, at 2 µM; measured here: cell number, toxicity
Response body: numeric value in %, unit text excluded.

* O=C(c1ccccc1)n1c(=S)nc2ccccn21 | 144

Exercise: Give its nuclei count value. Item: Cc1ccccc1-n1nc(C)c2cc(C(=O)NCc3cccnc3)sc21
Key: 113

Exercise: Cc1cccc(-c2cc3nc4c(c(N5CCOCC5)n3n2)CCCC4)c1 , same question.
Key: 101

Exercise: Nc1ccc(C(=O)OCCCc2nc3ccccc3[nH]2)cc1 , same question.
Key: 92.5

Exercise: O=C(NCC1CCCO1)c1ccccc1-c1nc(-c2ccc(Cl)cc2)no1 (stereo unspecified) , same question.
Key: 122

Exercise: O=C(NCC(=O)N(c1cnc2ccccc2c1)C(C(=O)NC1CCCC1)c1ccncc1)c1ccco1 (stereo unspecified) , same question.
Key: 107

* * *

Measured cell count, listed per entry for reference.
Assay: inhibitors of TNFa-induced NFkB p65 translocation, primary screen, imaging, HUVEC, MLSMR starter and 10KST1 sets (AID 438);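 further: compound added about 3h40 before a 20 min TNFalpha stimulation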
Details: HUVEC TNFa-induced p65 nuclear translocation; measured here: nuclei count (cytotoxicity indicator), at 2.08 µM
Respond using a number only.

Exercise: Give its cell count value. Item: C=C(C)Cn1c(N2CC(C)CC(C)C2)nc2c1c(=O)[nH]c(=O)n2C (stereo not given)
Key: 616

Exercise: Cn1c(=O)n(CC(=O)OCc2ccccc2)c(=O)c2c1nc1n2CCCN1C1CCCCC1 , same question.
Key: 376

Exercise: COc1ccc(C)cc1S(=O)(=O)N(CC(=O)O)c1ccccc1 , same question.
Key: 343

* * *

Assay: inhibitors of TNFa-induced NFkB p65 translocation, primary screen, imaging, HUVEC, MLSMR starter and 10KST1 sets (AID 438);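 further: compound added about 3h40 before a 20 min TNFalpha stimulation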
Conditions: HUVEC TNFa-induced p65 nuclear translocation; measured here: nuclei count (cytotoxicity indicator), at 2.08 µM
Condition met means recorded cell count is 500 or above; Condition not met means it is below 500.

* CCCn1c(SCC(=O)Nc2ccccc2C(=O)OC)nc2c1c(=O)n(C)c(=O)n2C | Condition met
* COc1cc(NC(=O)CSCc2cnn(-c3ccccc3)c2-n2cccc2)cc(OC)c1 | Condition met
* O=C(c1ccco1)N1CCN(CC2CC3C=CC2C3)CC1 (stereo unspecified) | Condition not met
* COc1ccc(OC)c(NC(=O)C2C3CC4OC(=O)C2C4C3)c1 (stereo unspecified) | Condition not met
* CCCC(CCC(=O)Nc1ccc(C(=O)OCC)cc1)C(=O)O (stereo unspecified) | Condition not met
* CCc1ccc(CNCc2cccnc2)cc1 | Condition not met

Exercise: Given COc1cc(OC)c(C2C(C#N)=C(N)OC3=C2C(=O)CC(C)(C)C3)cc1OC (stereo unspecified) , state whether its cell count is at least 500.
Key: Condition not met

Exercise: CCOc1ccccc1C(=O)N1CCN(c2cccc(Cl)c2)CC1 , same question.
Key: Condition not met

* * *

Experiment: inhibitors of poly I:C-induced TLR3 signaling, primary screen, cell-based, poly I:C stimulus, luciferase, 10K MLSCN set (AID 602277)
Details: HEK293-TLR3 RL24 IRF3 luciferase reporter, at 10 µM, stronger effect = higher value
Condition met means recorded inhibition is 20% or above; Condition not met means it is below 20%.

Example entries and their recorded answers appear below.
- Nc1nnnn1NCc1cccc(OCc2ccccc2)c1: Condition not met
- O=C(CCc1ccccc1)Nc1ccncc1: Condition not met

We now examine a further compound.
Exercise: Given CCOC(=O)N1CCC(NC(=O)CN2C(=O)CCSc3ccccc32)CC1 , state whether its inhibition is at least 20%.
Key: Condition not met
